# Test system: S30 extracts from E. faecalis 27263
# experimentDescription: Gram-positive in vitro coupled transcription/translation (T/T) assay, E. faecalis S30 extract
# Type: biochemical
# conditions: template pXyl-FF; value in square brackets
measuredAttribute: IC50 (µg/mL)
Numbers only, in µg/mL.

Examples with their reported IC50 follow.
{"columns": ["compoundString", "IC50, µg/mL"],
 "data": [
  ["CC(=O)NC[C@H]1CN(c2ccc(N3CCOCC3)c(F)c2)C(=O)O1", 0.9],
  ["O=C(N[C@H](CO)[C@H](O)c1ccc([N+](=O)[O-])cc1)C(Cl)Cl", 4.8]
]}

Consider the additional compound presented here.
Query: Tell me reported IC50 for CN(C)[C@@H]1C(=O)C(C(N)=O)=C(O)[C@@]2(O)C(=O)C3=C(O)c4c(O)cccc4[C@@](C)(O)[C@H]3C[C@@H]12 , tested with S30 extracts from E. faecalis 27263.
Response: 0.8
